experiment: Plasma concentration in mouse at 100 mg/kg, ip after 15 mins; type: ADME, organism-based; design: dose 100 mg/kg, route intraperitoneal
Observed Property: concentration at […] (µM)

Smiles Entry	Readout Value
O=C(CCc1nc(-c2ccc(O)cc2)no1)Nc1ccccc1C(=O)O	490

====

assay: Half life in mouse at 1 mg/kg, iv or 2 mg/kg, po; type: ADME, organism-based; details: in vivo
Assign class by half-life: not lower than 2 h means 1; lower than 2 h means -1.

Smiles Entry	Group
O=C(CCc1nc(-c2ccc(O)cc2)no1)Nc1ccccc1C(=O)O	-1
Cc1c(CCC(=O)Nc2ccccc2C(=O)O)cnn1-c1ccc(O)cc1	-1
O=C(CCc1ccc(-c2ccc(O)cn2)cc1)Nc1ccccc1C(=O)O	1
O=C(CCc1cnc(-c2ccc(O)cc2Cl)s1)Nc1ccccc1C(=O)O	-1
O=C(CCc1cnc(-c2ccc(O)cn2)s1)Nc1ccccc1C(=O)O	1
